- STUDY SYSTEM: human JAK1 (Homo sapiens, UniProt P23458)
- Construct: catalytic domain, amino acids 866-1154; catalog number PV4774
- Sequence (P23458 866-1154): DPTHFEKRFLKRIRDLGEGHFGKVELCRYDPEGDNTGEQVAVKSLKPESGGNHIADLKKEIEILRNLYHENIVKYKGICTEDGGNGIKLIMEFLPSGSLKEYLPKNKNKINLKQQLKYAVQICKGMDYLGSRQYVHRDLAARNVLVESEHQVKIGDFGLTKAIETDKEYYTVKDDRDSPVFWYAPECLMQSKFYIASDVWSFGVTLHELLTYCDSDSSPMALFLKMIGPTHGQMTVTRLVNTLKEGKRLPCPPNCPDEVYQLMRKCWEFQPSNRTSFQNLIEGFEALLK
- ASSAY REMARKS: JAK1 inhibition assay (polyGT substrate / Ulight-JAK1 peptide)
- PROTOCOL CONDITIONS: recombinant human JAK1 catalytic domain; polyGT or Ulight-JAK1 peptide assay
pIC50: −log10 of the molar value.
Below, each entry is listed with its recorded pIC50.

1. CCc1cc(C2CN(CC(F)(F)F)C2)ncc1N(C)c1cc2c(cn1)ncn2C [Compound 342] = 6.30 to 7.00
2. CCc1cc(C2=CCN(C(=O)[C@@H](C)O)CC2)ccc1N(C)c1cc2c(cn1)ncn2C [Compound 248] = 7.00 to 11.00
3. CCc1cc(C(C#N)N2CC[C@@H](F)C2)ccc1N(C)c1cc2c(cn1)ncn2C (some centres unmarked) [Compound 438] = 7.00 to 11.00

Next molecule, please.
Need pIC50, item CCc1cc(-c2cccs2)ncc1N(C)c1cc2c(cn1)ncn2C [Compound 289]
7.00 to 11.00

* * *

- STUDY SYSTEM: human JAK1 (Homo sapiens, UniProt P23458)
- Construct: catalytic domain, amino acids 866-1154; catalog number PV4774
- ASSAY REMARKS: JAK1 inhibition assay (polyGT substrate / Ulight-JAK1 peptide)
- PROTOCOL CONDITIONS: recombinant human JAK1 catalytic domain; polyGT or Ulight-JAK1 peptide assay
ENDPOINT: IC50

Observe how each entry below is paired with its result.
1. CCc1cc(CN2CC(C#N)C2)ccc1N(C)c1cc2c(cn1)ncn2C = 0.01 to 100 nM
2. CCc1ccc(C#N)cc1N(C)c1cc2c(cn1)ncn2C = 0.01 to 100 nM
3. CCc1cc(C2CN(S(C)(=O)=O)C2)ncc1N(C)c1cc2c(cn1)ncn2C = 0.01 to 100 nM
4. CCc1cc(C2(CCNS(=O)(=O)C(F)F)COC2)ccc1N(C)c1cc2c(cn1)ncn2C = 0.01 to 100 nM
5. CCc1ccccc1N(CCN1CCOCC1)c1cc2c(cn1)ncn2C = 101 to 500 nM

Param readout= IC50; system= human JAK1 (Homo sapiens, UniProt P23458); entry= Cc1cc(OCC#N)ccc1N(C)c1cc2c(cn1)ncn2C ; returns value.
0.01 to 100 nM

Param readout= IC50; system= human JAK1 (Homo sapiens, UniProt P23458); entry= CCc1cc(C(=O)N2CCC(OC)CC2)ccc1N(C)c1cc2c(cn1)ncn2C ; returns value.
> 1000 nM

Param readout= IC50; system= human JAK1 (Homo sapiens, UniProt P23458); entry= CCc1cc(C(=O)NC2CNC2)ccc1N(C)c1cc2c(cn1)ncn2C ; returns value.
101 to 500 nM

Param readout= IC50; system= human JAK1 (Homo sapiens, UniProt P23458); entry= CCc1cc(C2=CCN(C(C)=O)CC2)ccc1N(C)c1cc2c(cn1)ncn2C ; returns value.
0.01 to 100 nM

Param readout= IC50; system= human JAK1 (Homo sapiens, UniProt P23458); entry= CCCn1cc(-c2ccc(N(C)c3cc4c(cn3)ncn4C)c(CC)c2)cn1 ; returns value.
0.01 to 100 nM

Param readout= IC50; system= human JAK1 (Homo sapiens, UniProt P23458); entry= CCc1cc(C(=O)NCCN(C)C)ccc1N(C)c1cc2c(cn1)ncn2C ; returns value.
0.01 to 100 nM

Param readout= IC50; system= human JAK1 (Homo sapiens, UniProt P23458); entry= CCc1cc(-c2cnccc2Cl)ccc1N(C)c1cc2c(cn1)ncn2C ; returns value.
0.01 to 100 nM

Param readout= IC50; system= human JAK1 (Homo sapiens, UniProt P23458); entry= CCc1cc(CN(CC#N)S(C)(=O)=O)ncc1N(C)c1cc2c(cn1)ncn2C ; returns value.
0.01 to 100 nM

Param readout= IC50; system= human JAK1 (Homo sapiens, UniProt P23458); entry= CCc1cc(C(C#N)N2CCOCC2)ccc1N(C)c1cc2c(cn1)ncn2C (stereo not shown) ; returns value.
0.01 to 100 nM

Param readout= IC50; system= human JAK1 (Homo sapiens, UniProt P23458); entry= CCc1ccc(C(=O)N(C)C)cc1N(C)c1cc2c(cn1)ncn2C ; returns value.
101 to 500 nM

Param readout= IC50; system= human JAK1 (Homo sapiens, UniProt P23458); entry= CCc1cc(-c2cnn(Cc3cccc(OC)c3)c2)ccc1N(C)c1cc2c(cn1)ncn2C ; returns value.
0.01 to 100 nM

* * *

- STUDY SYSTEM: human JAK3 (Homo sapiens, UniProt P52333)
- Construct: catalytic domain (amino acids 781-1124; catalog number PV3855)
- Sequence (P52333 781-1124): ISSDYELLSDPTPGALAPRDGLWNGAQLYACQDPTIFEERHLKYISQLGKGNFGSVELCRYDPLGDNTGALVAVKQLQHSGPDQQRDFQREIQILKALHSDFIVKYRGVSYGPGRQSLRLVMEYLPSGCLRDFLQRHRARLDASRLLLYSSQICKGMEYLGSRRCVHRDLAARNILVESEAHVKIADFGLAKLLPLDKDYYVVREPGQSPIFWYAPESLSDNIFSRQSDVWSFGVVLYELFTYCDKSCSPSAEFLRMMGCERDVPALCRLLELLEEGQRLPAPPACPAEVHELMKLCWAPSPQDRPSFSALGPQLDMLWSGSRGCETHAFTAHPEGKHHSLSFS
- ASSAY REMARKS: JAK3 inhibition assay
- PROTOCOL CONDITIONS: recombinant human JAK3 catalytic domain; polyGT substrate
pIC50: −log10 of the molar value.
Below, each entry is listed with its recorded pIC50.

Observe how each entry below is paired with its result.
1. CCc1cc(C(C)O)ccc1N(C)c1cc2c(cn1)ncn2C (centres unmarked) = 6.30 to 7.00
2. CCc1cc(C2(C#N)CC2)ccc1N(C)c1cc2c(cn1)ncn2C = 7.00 to 11.00
3. CCc1cc(CC#N)ccc1N(C)c1cc2c(cn1)ncn2C = 7.00 to 11.00
4. CCc1ccccc1N(CC1CC1)c1cc2c(cn1)ncn2C = 6.00 to 6.30
5. CCc1cc(C(=O)NCCN(C)C)ccc1N(C)c1cc2c(cn1)ncn2C = < 6.00
6. CCc1cc(CN2CCN(S(C)(=O)=O)CC2)ccc1N(C)c1cc2c(cn1)ncn2C = 6.00 to 6.30

Need pIC50, item CCc1cc(C2=CCN(S(=O)(=O)CC(F)(F)F)CC2)ccc1N(C)c1cc2c(cn1)ncn2C
7.00 to 11.00

Need pIC50, item CN(c1ccc(CC#N)cc1)c1cc2c(cn1)ncn2C
< 6.00

Need pIC50, item CCc1cc(CNC2COC2)ccc1N(C)c1cc2c(cn1)ncn2C
< 6.00

Need pIC50, item CCc1cc(C2CN(C(=O)C3CCOCC3)C2)ncc1N(C)c1cc2c(cn1)ncn2C
< 6.00

Need pIC50, item CCc1cc(C(C#N)N2CCN(S(C)(=O)=O)CC2)ccc1N(C)c1cc2c(cn1)ncn2C (centres unmarked)
7.00 to 11.00

* * *

- System: BA/F3 cell line
- ASSAY REMARKS: BA/F3 viability assay
- PROTOCOL CONDITIONS: Mus musculus, BaF3, 48 h, read-out: BA/F3 IC50
pIC50: −log10 of the molar value.
ENDPOINT: pIC50

Observe how each entry below is paired with its result.
1) CCc1cc(C(C#N)N2CCN(C(C)=O)CC2)ccc1N(C)c1cc2c(cn1)ncn2C (centres unmarked) [Compound 396] = < 5.30
2) CCc1cc(CN(C)S(C)(=O)=O)ccc1N(C)c1cc2c(cn1)ncn2C [Compound 261] = 5.30 to 6.00
3) CN(c1cc2c(cn1)ncn2C)c1ccc(CN(C)S(C)(=O)=O)cc1F [Compound 358] = < 5.30
4) CN(c1cc2c(cn1)ncn2C)c1ccc(C2CN(C(=O)OC(C)(C)C)C2)cc1OC(F)F [Compound 362] = < 5.30
5) CCc1cc(C2=CCN(C(=O)[C@@H](C)O)CC2)ccc1N(C)c1cc2c(cn1)ncn2C [Compound 248] = 5.30 to 6.00
6) CN(c1cc2c(cn1)ncn2C)c1ccc(C2CN(S(=O)(=O)C(F)F)C2)cc1OC(F)F [Compound 370] = 5.30 to 6.00
7) CCc1cc(-c2cnn(C)c2)ccc1N(C)c1cc2c(cn1)ncn2C [Compound 93] = < 5.30

Need pIC50, item CCc1cc(CNCC(F)F)ccc1N(C)c1cc2c(cn1)ncn2C [Compound 379]
< 5.30

* * *

Below, each entry is listed with its recorded IC50.
- STUDY SYSTEM: human JAK2 (Homo sapiens, UniProt O60674)
- Construct: catalytic domain (amino acids 808-1132; catalog number PV4210); GST
- Sequence (O60674 808-1132): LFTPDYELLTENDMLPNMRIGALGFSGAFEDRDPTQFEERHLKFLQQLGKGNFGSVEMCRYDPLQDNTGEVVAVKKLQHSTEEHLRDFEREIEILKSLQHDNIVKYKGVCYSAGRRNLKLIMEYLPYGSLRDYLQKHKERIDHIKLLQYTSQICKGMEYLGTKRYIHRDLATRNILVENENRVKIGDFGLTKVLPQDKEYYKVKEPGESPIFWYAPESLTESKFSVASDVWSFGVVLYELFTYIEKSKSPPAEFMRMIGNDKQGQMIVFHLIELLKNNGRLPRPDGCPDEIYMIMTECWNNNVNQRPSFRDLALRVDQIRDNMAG
- ASSAY REMARKS: JAK2 inhibition assay (polyGT substrate / Ulight-JAK1 peptide)
- PROTOCOL CONDITIONS: recombinant human JAK2 catalytic domain; polyGT or Ulight-JAK1 peptide assay

1. CCc1ccccc1N(C)c1cc2c(cn1)ncn2C(F)F [Compound 431] = > 1000 nM

Need IC50, item CN(c1ccc(OCCO)cc1)c1cc2c(cn1)ncn2C [Compound 19]
> 1000 nM

Need IC50, item CCc1ccccc1N(CCN1CCOCC1)c1cc2c(cn1)ncn2C [Compound 460]
> 1000 nM

Need IC50, item CCc1cc(C(=O)N(C)C)ccc1N(C)c1cc2c(cn1)ncn2C [Compound 118]
> 1000 nM

Need IC50, item CCc1cc(C2CN(C(=O)CCC(F)(F)F)C2)ncc1N(C)c1cc2c(cn1)ncn2C [Compound 338]
> 1000 nM

Need IC50, item CCc1cc(CNS(=O)(=O)C(F)F)cc(F)c1N(C)c1cc2c(cn1)ncn2C [Compound 324]
0.01 to 100 nM

Need IC50, item CCc1ccc(C(=O)NCCOC)cc1N(C)c1cc2c(cn1)ncn2C [Compound 116]
> 1000 nM

Need IC50, item CCc1cc(CNS(=O)(=O)N2CCOCC2)ccc1N(C)c1cc2c(cn1)ncn2C [Compound 426]
0.01 to 100 nM

Need IC50, item CN(c1cc2c(cn1)ncn2C)c1ccc(CNS(C)(=O)=O)cc1OC(F)F [Compound 429]
0.01 to 100 nM

Data provenance is patent US20130217664A1.
